Hey, just so you know, these numbers are from patent US20240174690A1.

# System: KRAS G12C-dependent Ba/F3 cells
# test_protocol: Ba/F3 proliferation assay, KRAS G12C
# Format: cell-based
# condition_label: Mus musculus, BaF3, 72 h, AlamarBlue
# Protocol: Plasmids containing KRASG12 mutants (i.e. […], G12C, G12V) are obtained from GeneScript. To generate KRASG12-dependent Ba/F3 models, Ba/F3 cells are transduced with retroviruses containing vectors that harbor KRASG12 isoforms. […] Compounds are added using an Access Labcyte Workstation with a Labcyte Echo 550 or 555 accoustic dispenser. […] AlamarBlue™ (ThermoFisher), a viability stain, is added and fluorescence measured in the PerkinElmer Envision HTS Multilabel Reader. […]
pIC50: −log10 of the molar value.
Values of pIC50 greater than or equal to 8 map to TRUE; values below map to FALSE.

The following compounds have reported results that may help.
C[C@H](Oc1cc(-n2ccnn2)nc(-c2onc3c2CCC[C@@]32CCCc3sc(N)c(C#N)c32)n1)[C@@H]1CCCN1C	TRUE
CO[C@@H]1C[C@@H]([C@H](C)Oc2cc(N3CCN(C)C4(CC4)C3)nc(-c3onc4c3CCC[C@@]43CCCc4sc(N)c(C#N)c43)n2)N(C)C1	FALSE
C[C@H](Oc1cc(-n2cc3c(n2)CNC3)nc(-c2noc3c2CCC[C@@]32CCCc3sc(N)c(C#N)c32)n1)[C@@H]1C[C@@H](F)CN1C	FALSE

Could you tell me if the measured pIC50 of C[C@H](Oc1cc(-c2ccn3ncnc3c2)nc(-c2noc3c2CCC[C@@]32CCCc3sc(N)c(C#N)c32)n1)[C@@H]1CCCN1C reaches 8 or more? FALSE

What about this compound? C[C@H](Oc1cc(-c2cnn(C)c2)nc(-c2noc3c2CCC[C@@]32CCCc3sc(N)c(C#N)c32)n1)[C@@H]1CCCN1C FALSE

----------
# target_or_test_system: KRAS (G12C)::SOS1 (Homo sapiens (Human), UniProt P01116, C118S/C51S/C80L/G12C)
# Sequence (P01116 other isoform, or with tags, fused parts or gaps G12C/C51S/C80L/C118S): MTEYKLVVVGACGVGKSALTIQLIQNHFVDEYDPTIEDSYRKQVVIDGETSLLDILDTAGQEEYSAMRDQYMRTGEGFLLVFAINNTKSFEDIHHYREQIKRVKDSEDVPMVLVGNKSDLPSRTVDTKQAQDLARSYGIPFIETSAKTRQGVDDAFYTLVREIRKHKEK
# test_protocol: KRAS::SOS1 AlphaScreen binding assay, KRAS G12C
measure_name: pIC50
Schema: pIC50 number; meaning minus log10 of the concentration expressed in molar units.

The cases that follow already have their pIC50 on record.
C[C@@H]1CN(c2cc(O[C@@H](C)[C@@H]3CCCN3C)nc(-c3noc4c3CCC[C@@]43CCCc4sc(N)c(C#N)c43)n2)C[C@H](C)N1	8.70
C[C@H](Oc1cc(N2CC[C@@H](O)C2)nc(-c2noc3c2CCC[C@@]32CCCc3sc(N)c(C#N)c32)n1)[C@@H]1CCCN1C	8.70
C[C@H]1CNCCCN1c1cc(-n2ccnc2)nc(-c2noc3c2CCC[C@@]32CCCc3sc(N)c(C#N)c32)n1	8.30
C[C@H](Oc1cc(N2CCNC3(CC3)C2)nc(-c2onc3c2CCC[C@@]32CCCc3sc(N)c(C#N)c32)n1)[C@@H]1CCCN1C	8.70
C[C@H](NC(=O)c1ccn(-c2cc(O[C@@H](C)[C@@H]3CCCN3C)nc(-c3noc4c3CCC[C@@]43CCCc4sc(N)c(C#N)c43)n2)n1)c1ccccn1	8.70

Which value of pIC50 has been reported for C[C@H](Oc1cc(-c2ccn(C)n2)nc(-c2noc3c2CCC[C@@]32CCCc3sc(N)c(C#N)c32)n1)[C@@H]1C[C@H](F)CN1C in the records? 8.52

What about this molecule? C[C@H](Oc1cc(N2CCN3CCC3C2)nc(-c2onc3c2CCC[C@@]32CCCc3sc(N)c(C#N)c32)n1)[C@@H]1CCCN1C (stereo partly drawn) 8.30
